Entry source: PubChem BioAssay (NCI)

The compounds listed here are annotated with their TGI.
- Tested on: HL-60(TB) leukemia
- test-method-notes: NCI tumour cell line growth inhibition, 48 h

compound | TGI
C=CCC1=CC2(OC)C(=O)C(OC)(OC)C1C1C(OC)(OC)C(=O)C(OC)=CC12CC=C (stereo not drawn) | > 100 µM
CP(C)C.[Ag][I] | > 100 µM
N#C/C(=C\c1ccc(O)cc1O)C(N)=O | > 100 µM

* * *

- System: NCI-H522 lung
- test-method-notes: NCI tumour cell line growth inhibition, 48 h; in the data active = GI50 below about 0.43 µM; inactive = the rest
Possible outcomes: t (active), f (inactive)

compound | discrete-label
O=C(CC1(O)C(=O)Nc2c(Cl)ccc(Cl)c21)c1ccc(C2CC2)cc1 (centres undefined) | f
CC[O-].CC[O-].O=C([CH-]C(=O)c1ccccc1)c1ccccc1.O=C([CH-]C(=O)c1ccccc1)c1ccccc1.[Ti+4] | f
COc1ccc(C2C3=C(COC3=O)N(CCO)c3cc4c(cc32)OCCO4)cc1OC (centres undefined) | t
CCN(CC)c1ccc2nc3c4ccccc4c(=NC(=O)c4ccccc4-c4c5ccc(N(CC)CC)cc5[o+]c5cc(N(CC)CC)ccc45)cc-3oc2c1 | f

* * *

The compounds listed here are annotated with their TGI.
- System: IGROV1 ovarian
- test-method-notes: NCI tumour cell line growth inhibition, 48 h

compound | TGI
NC(=O)CCC(NC(=O)C(F)(F)F)C(=O)O (stereo unspecified) | > 100 µM
CC1CC(NN(C)C)C2(C(N)=O)C(N)=NC(=O)C12C#N (stereo unspecified) | > 100 µM
CC1(C)O[C@@H](CP(c2ccccc2)c2ccccc2)[C@H](CP(c2ccccc2)c2ccccc2)O1 | 16.5 µM
N#CC[C@H](C1CCCC1)n1cc(-c2ncnc3[nH]ccc23)cn1 | > 100 µM
CCOC(=O)C1CC/C(=C(/C#N)C(=O)OC)N1 (stereo unspecified) | > 100 µM
COc1ccccc1OC(=O)/C=C/c1ccccc1 | > 100 µM
C=C1C(=O)OC2/C=C(\C)CC(O)/C=C(/CO)CC(OC(=O)/C(C)=C/C)C12 (stereo unspecified) | 121 µM
Cc1cc(Br)cc(C)c1NC(=O)C(=O)C1C(=O)C(CC2C(=O)c3ccccc3C2=O)C(=O)CC1(C)C (stereo unspecified) | > 100 µM
CC[C@@]1(OC(=O)CN)C(=O)OCc2c1cc1n(c2=O)Cc2cc3c(N)c4c(cc3nc2-1)OCO4 | 0.342 µM
CC(=O)N[C@@H](Cc1ccc(OP(=O)(O)O)cc1)C(=O)N[C@H]1CCC(=O)N2CCC[C@@H](C(=O)NCc3ccc(O)cc3)N2C1=O | > 25 µM
O=C1C=C(Nc2ccccc2C(=O)CC(=O)C(=O)Nc2ccc(Cl)c(Cl)c2)c2ccccc2C1=O | > 100 µM
COC(=O)/C(=N\O)C(C(=O)C=C(C)C)C(=O)C(=O)Nc1ccccc1C (stereo unspecified) | > 100 µM
COC(=O)C(=O)C1CCCCC(C2=NC3NN=C(N)N3C2=O)C1=O (stereo unspecified) | > 100 µM
Cc1cc2c(cc1C)[n+]([O-])c(-c1c(Cl)cccc1Cl)c(N)[n+]2[O-] | > 100 µM
COC(=O)/C(=C\C(=O)c1ccc(Br)cc1)NN=C(c1ccccc1)c1ccccc1 | > 10 µM
C=C=[CH][Sn]([c]1ccccc1)([c]1ccccc1)[c]1ccccc1 | 4.47 µM
CC(=O)NNc1nc(C)c(C(/C=C/c2ccc(NC(C)=O)cc2)=N/NS(=O)(=O)c2ccc(C)cc2)s1 | > 100 µM
CCNCCNc1cc(-c2cccc(C(F)(F)F)c2)c(C#N)c2nc3ccccc3n12 | 3.49 µM
COc1ccc2c(c1)CC[C@@H]1[C@@H]2CC[C@]2(C)[C@@H](O)/C(=C/c3ccncc3)C[C@@H]12 | 30 µM
O=c1c2ncn(CCCl)c2n(-c2ccccc2)c(=S)n1-c1ccccc1 | > 100 µM
Oc1[nH]c2ccccc2c1N=NC(=S)N1CCCC1 | 15 µM
COc1cc(C2C(Cl)C(=O)N2NC(=O)Cc2ccccc2)ccc1O (stereo unspecified) | > 100 µM
CC(C)(C)C(=O)[CH-]C(=O)C(F)(F)C(F)(F)C(F)(F)F.CC(C)(C)C(=O)[CH-]C(=O)C(F)(F)C(F)(F)C(F)(F)F.[O-]CC1OC(O)C(O)C(O)C1O.[O-]CC1OC(O)C(O)C(O)C1O.[Ti+4] | > 100 µM
C=C1CC(C/C=C(\C)CC2CC(=C)C(=O)O2)OC1=O (stereo unspecified) | > 100 µM
CCCCCc1c(C)[nH]c(/C=c2\[nH]/c(=C3/C=c4ccccc4=N3)cc2OC)c1C | 5.25 µM
CCOc1ccc2c(c1)NC(=O)C(C1OC(c3ccccc3)=CC1=O)S2 (stereo unspecified) | 53.2 µM
COP(=O)(C(/C=C/c1ccccc1)OC(C)=O)[C@@H]1CCCC[C@H]1N(CC(C)(C)C)C(C)=O (stereo partly specified) | 24.1 µM
CC(=O)OCC(=O)C1(O)C(C)CC2C3C=C(C)C4=Cc5c(cnn5-c5ccccc5)CC4(C)C3C(O)CC21C (stereo unspecified) | 6.48 µM
Cc1c(N2C(=O)/C(=C\c3ccc(N(C)C)cc3)N=C2c2ccccc2)c(=O)n(-c2ccccc2)n1C | > 100 µM
N#CC(C#N)=Cc1ccc(-c2ccc(-c3nc4ccccc4o3)cc2)o1 | > 100 µM
CC1(C)C(=O)C2(C#N)CCC1C2 (stereo unspecified) | > 100 µM

* * *

The compounds listed here are annotated with their TGI.
- System: SW-620 colon
- test-method-notes: NCI tumour cell line growth inhibition, 48 h

compound | relational-operator | TGI [µM]
C=C1CC(C/C=C(\C)CC2CC(=C)C(=O)O2)OC1=O (centres undefined) | > | 100
C[C@@H]1CN2[C@H]3[C@@H]1CC[C@]31CCC(=O)O[C@]1(C)[C@@H]1CC[C@H]3CCC=C3[C@@H]12 | > | 70
CC12C(=O)N(CCN)C(=O)C1C1c3ccccc3C2c2ccccc21 (centres undefined) | > | 100
Oc1ccc2ccccc2c1Cc1c(O)ccc2ccccc12 | = | 39.9
Cc1cc2nc3c4ccccc4n(CCN(C)C)c3nc2cc1C | = | 9.59
O=S(Cc1cc2c(cc1Br)OCO2)c1ccccc1 (centres undefined) | = | 29.7
O=[N+]([O-])c1cc(/C=N/NS(=O)(=O)c2ccc(F)cc2)c(O)c([N+](=O)[O-])c1 | > | 100
Cn1c2c(cc(-c3ccccc3)c1=O)COc1ccccc1-2 | > | 100
FC(F)(F)C1=NC(=NNc2nnc(-c3ccccc3)c(-c3ccccc3)n2)N=C(C(F)(F)F)C1 | > | 100
COc1ccc(-n2sc(=O)n(Cc3ccc(COC(=O)C(C)c4ccc(CC(C)C)cc4)cc3)c2=O)cc1 (centres undefined) | = | 1.82
C=CCC1=CC2(OC)C(=O)C(OC)(OC)C1C1C(OC)(OC)C(=O)C(OC)=CC12CC=C (centres undefined) | > | 100
CP(C)C.[Ag][I] | > | 100
COc1ccc(C2S/C(=C\c3cccc(O)c3)C(=O)N2NC(=O)Cc2ccccc2)cc1 (centres undefined) | > | 100
CC(OCc1ccccc1)C(NC(=O)C1CSSCC(NC(=O)C(Cc2ccccc2)NC(=O)OCc2ccccc2)C(=O)NC(Cc2ccccc2)C(=O)NC(Cc2cn(C=O)c3ccccc23)C(=O)NC(CCCCNC(=O)OCc2ccccc2)C(=O)NC(C(C)OCc2ccccc2)C(=O)N1)C(N)=O (centres undefined) | > | 54.5
COC(=O)CCc1ccc2c(c1)CC1(C2)Cc2ccc3c(c2C1)CCC3 (centres undefined) | > | 100
CCNCCNc1cc(-c2cccc(C(F)(F)F)c2)c(C#N)c2nc3ccccc3n12 | = | 1.51
CC[O-].CC[O-].O=C([CH-]C(=O)c1ccccc1)c1ccccc1.O=C([CH-]C(=O)c1ccccc1)c1ccccc1.[Ti+4] | > | 100
CC1(C)CC2CC(C)(CN2c2ncnc3ccc(Br)cc23)C1 (centres undefined) | = | 30.7
COc1cc(C2C(Cl)C(=O)N2NC(=O)Cc2ccccc2)ccc1O (centres undefined) | > | 100
C=C(C)[C@@H]1CC[C@]2(C)[C@H](C=CC3=C4C[C@@](C)(CO)CC[C@]4(C)CC[C@]32C)[C@@]1(C)CCCN | = | 3.04
N#CSCC(=O)c1ccc(Cl)cc1 | = | 12.2
OC1C2C=CCC1CCC2 (centres undefined) | > | 100
Cc1cccnc1CNC1CC(NCc2ncccc2C)CC(NCc2ncccc2C)C1 (centres undefined) | = | 5.8
Oc1[nH]c2ccccc2c1N=NC(=S)N1CCCC1 | = | 52.7

* * *

- Test system: KM12 colon
- test-method-notes: NCI tumour cell line growth inhibition, 48 h
The molecules listed here are annotated with their TGI.

molecule | TGI
O=C(N/C(=C/c1ccc(Cl)cc1)c1nc2ccccc2c(=O)n1Nc1ccc([N+](=O)[O-])cc1[N+](=O)[O-])c1ccccc1 | > 100 µM
C/C(CN1C(=O)c2ccccc2C1=O)=N\NS(=O)(=O)c1ccc(F)cc1 | > 100 µM
COc1cc(/C=C/C(=O)c2ccc(Nc3nc(Nc4ccccc4)nc(Nc4ccc(Cl)cc4)n3)cc2)cc(OC)c1OC | > 32.5 µM
CC(=O)O/C=C\OC1CCCC1 | > 100 µM
Cc1cc2c(C(C)C)c(O)c(O)c(C=O)c2c(O)c1-c1c(C)cc2c(C(C)C)c(O)c(O)c(C=O)c2c1O (tested in a mixture with another compound) | 1.51 µM
O=[N+]([O-])c1cc(/C=N/NS(=O)(=O)c2ccc(F)cc2)c(O)c([N+](=O)[O-])c1 | 50 µM
CNC(=O)OCCN1c2ccccc2Sc2ccccc21 | > 100 µM
NC(=O)C(=CN1CC(=O)NC1=S)C(N)=O | > 100 µM
COc1cc(NCc2ccc3n2-c2ccccc2OC3)cc(OC)c1OC | > 100 µM
COC(=O)CCc1ccc2c(c1)CC1(C2)Cc2ccc3c(c2C1)CCC3 (centres undefined) | > 100 µM
COc1cc2c3c(c1O)C1(C=CC(=O)C=C1)CC3N(C)CC2 (centres undefined) | 17.5 µM
COc1ccc(-n2sc(=O)n(Cc3ccc(COC(=O)C(C)c4ccc(CC(C)C)cc4)cc3)c2=O)cc1 (centres undefined) | 14.6 µM
COc1cccc2c1C(=O)c1c(O)c3c(c(O)c1C2=O)C[C@@](O)(/C(C)=N/NC(=O)c1ccc(Cl)c(Cl)c1)C[C@@H]3OC1CC(N)C(O)C(C)O1 (some centres undefined) | 0.624 µM
COc1cccc(/C=C2\C(=O)N(C(=O)Cc3ccccc3)N=C2C)c1 | > 100 µM
